molecular target: Autotaxin (Homo sapiens)
reported property: IC50

Which IC50 value is on record for CCc1nc2ccc(N3CCC(NC(=O)C4CCOCC4)CC3)nn2c1N(C)c1nc(-c2ccc(F)cc2)cs1 ?
< 1000 nM

All figures here come from ChEMBL document CHEMBL5726561.
